Test system: TSSK3;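 note: KINOMEscan kinase panel screen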
experimental_parameters: concentration: 1 μM, replicates: in singlicate; n = 1
Response field label: string, one of met (%Inh strictly below 2%) or not met.

- molecule: "CC(C)c1ccc(O)cc1Nc1ccnc2ccc(C(F)(F)F)cc12"
  assayed_system: "TSSK3"
  assigned_label: "not met"
- molecule: "Cc1ccc(NC(=O)Nc2ccc(Cl)cc2)cc1-c1ccc(C(=O)Nc2ccncc2)cc1"
  assayed_system: "TSSK3"
  assigned_label: "not met"
- molecule: "Cn1cnc2c(N)ncnc21"
  assayed_system: "TSSK3"
  assigned_label: "met"
- molecule: "COC(=O)C(NC(=O)NC1CCN(c2ccnc(Nc3ccc(F)cc3)n2)C1)c1ccccc1 (stereo not shown)"
  assayed_system: "TSSK3"
  assigned_label: "not met"
- molecule: "O=C(Nc1n[nH]c2nc(-c3cccs3)c(Br)cc12)C1CCCC1"
  assayed_system: "TSSK3"
  assigned_label: "met"
- molecule: "CCn1c(-c2c(N)noc2C)nc2cnccc21"
  assayed_system: "TSSK3"
  assigned_label: "not met"
- molecule: "NS(=O)(=O)c1cccc(N/C=C2\\C(=O)Nc3ccc(S(=O)(=O)Cc4c(Cl)cccc4Cl)cc32)c1"
  assayed_system: "TSSK3"
  assigned_label: "not met"
- molecule: "COc1ccc(-c2coc3ccc(-c4nnc(C)o4)cc23)cc1"
  assayed_system: "TSSK3"
  assigned_label: "met"
- molecule: "Cc1nccc(-c2c(-c3ccc(F)cc3)ncn2CCCN2CCOCC2)n1.Cl"
  assayed_system: "TSSK3"
  assigned_label: "not met"

These measurements were taken from paper PMC5540273.
